Cited source: patent US9221834B2

measurement_target: recombinant CETP (rCETP) (Homo sapiens, UniProt P11597)
Sequence (P11597 18-493): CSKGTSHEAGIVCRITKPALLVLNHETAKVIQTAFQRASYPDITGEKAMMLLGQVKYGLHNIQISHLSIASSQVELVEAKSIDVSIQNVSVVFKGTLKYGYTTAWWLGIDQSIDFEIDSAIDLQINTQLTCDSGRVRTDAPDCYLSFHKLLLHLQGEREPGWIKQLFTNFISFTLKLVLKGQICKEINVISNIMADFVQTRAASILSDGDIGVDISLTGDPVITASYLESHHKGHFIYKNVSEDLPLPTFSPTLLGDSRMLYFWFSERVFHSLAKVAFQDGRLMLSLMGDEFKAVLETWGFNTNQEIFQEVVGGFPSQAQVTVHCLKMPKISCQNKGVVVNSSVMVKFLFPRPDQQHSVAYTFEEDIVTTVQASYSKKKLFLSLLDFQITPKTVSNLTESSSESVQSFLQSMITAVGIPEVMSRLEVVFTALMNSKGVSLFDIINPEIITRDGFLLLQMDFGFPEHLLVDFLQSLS
protocol_notes: RTA assay using recombinant CETP (2% RTA)
Format: biochemical
condition_parameters: RTA assay in 2% human serum; read-out: IC50
Grouping key: IC50. Bins: low (below 20 nM), moderate (20 nM to below 80 nM), high (80 nM or more)

# compound, measurement_target, cat
records = [
    ("COc1ccc([C@H]2CC[C@H](C(=O)O)CC2)cc1-c1ccc(N2CC(F)(F)C2)nc1CN1C(=O)O[C@H](c2cc(C)cc(C(F)(F)F)c2)[C@@H]1C [Example 293]", "recombinant CETP (rCETP) (Homo sapiens, UniProt P11597)", "low"),
    ("COc1ccc([C@H]2CC[C@H](C(=O)O)CC2)cc1-c1ccc(N2CCC2)nc1CN1C(=O)O[C@H](c2cccc(C)c2)[C@@H]1C [Example 225]", "recombinant CETP (rCETP) (Homo sapiens, UniProt P11597)", "moderate"),
    ("COc1c(F)cc(-n2ncc(C(=O)O)c2C(F)(F)F)cc1-c1cnc(N2CC(F)(F)C2)nc1CN1C(=O)O[C@H](c2cc(C(F)(F)F)cc(C(F)(F)F)c2)[C@@H]1C [Example 187]", "recombinant CETP (rCETP) (Homo sapiens, UniProt P11597)", "low"),
    ("COc1ccc([C@H]2CC[C@H](C(=O)O)CC2)cc1-c1c(C)cc(N2CCC2)nc1CN1C(=O)O[C@H](c2cc(F)cc(C(F)(F)F)c2)[C@@H]1C [Example 292]", "recombinant CETP (rCETP) (Homo sapiens, UniProt P11597)", "low"),
    ("CCOC(=O)[C@@H]1C[C@H]1c1ccc(OC)c(-c2ccc(N3CCC3)nc2CN2C(=O)O[C@H](c3cc(F)cc(F)c3)[C@@H]2C)c1 [Example 16]", "recombinant CETP (rCETP) (Homo sapiens, UniProt P11597)", "high"),
    ("COC(=O)CCc1ccc(OC)c(-c2cnc(N3CC(OC)C3)nc2CN2C(=O)O[C@H](c3cc(C(F)(F)F)cc(C(F)(F)F)c3)[C@@H]2C)c1 [Example 140]", "recombinant CETP (rCETP) (Homo sapiens, UniProt P11597)", "high"),
    ("COC(=O)c1ccc(-c2ccc(OC)c(-c3cnc(N4CC(OC)C4)nc3CN3C(=O)O[C@H](c4cc(C(F)(F)F)cc(C(F)(F)F)c4)[C@@H]3C)c2)c(C)c1 [Example 135]", "recombinant CETP (rCETP) (Homo sapiens, UniProt P11597)", "high"),
    ("COc1ccc(CCC(N)=O)cc1-c1ccc(N2CCC2)nc1CN1C(=O)O[C@H](c2cc(C)cc(C)c2)[C@@H]1C [Example 249]", "recombinant CETP (rCETP) (Homo sapiens, UniProt P11597)", "high"),
    ("COC(=O)c1ccc(-c2cc(-c3cnc(N4CC(F)(F)C4)nc3CN3C(=O)O[C@H](c4cc(C(F)(F)F)cc(C(F)(F)F)c4)[C@@H]3C)c(OC)cc2F)c(C)c1 [Example 132]", "recombinant CETP (rCETP) (Homo sapiens, UniProt P11597)", "low"),
    ("COc1ccc(CCC(=O)O)cc1-c1ccc(N2CCC2)nc1CN1C(=O)O[C@H](c2cc(C)cc(C)c2)[C@@H]1C [Example 228]", "recombinant CETP (rCETP) (Homo sapiens, UniProt P11597)", "moderate"),
    ("COc1ccc(C(C)(C)CC(=O)O)cc1-c1ccc(N2CCC2)nc1CN1C(=O)O[C@H](c2cc(C(F)(F)F)cc(C(F)(F)F)c2)[C@@H]1C [Example 77]", "recombinant CETP (rCETP) (Homo sapiens, UniProt P11597)", "low"),
    ("COc1cc(F)c([C@H]2C[C@@H](C(=O)OC)C2)cc1-c1ccc(N2CCC2)nc1CN1C(=O)O[C@H](c2cc(C(F)(F)F)cc(C(F)(F)F)c2)[C@@H]1C [Example 37]", "recombinant CETP (rCETP) (Homo sapiens, UniProt P11597)", "low"),
]
